System: A498 complex spheroids with HUVEC/MSC, growth
procedure-text: Anticancer human tumor A498 cell line growth inhibition [AhR];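 further: luminescence signal used as a surrogate for viable cells; seven day exposure starting three days after spheroid seeding; luminescence viability scaled so 100% equals DMSO vehicle wells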
condition-info: second compound 1 µM; first compound 0.001 µM; stronger effect = lower value
Quick list: viability, T/C per entry.

compound	viability, T/C (%)
CC[C@@]1(O)C(=O)OCc2c1cc1n(c2=O)Cc2cc3c(CN(C)C)c(O)ccc3nc2-1 + CC(CO)NC(=O)c1cc(-c2ccc(Cl)cc2)nn(-c2cnn(C)c2)c1=O	106
CC[C@@]1(O)C(=O)OCc2c1cc1n(c2=O)Cc2cc3c(CN(C)C)c(O)ccc3nc2-1 + Cc1cncc(-c2nc(NCCc3c[nH]c4ccccc34)c3ncn(C(C)C)c3n2)c1	92.5
Cn1ncnc1C1c2n[nH]c(=O)c3cc(F)cc(c23)NC1c1ccc(F)cc1 (stereo not drawn) + Cc1ccccc1N=Nc1ccc(NC(=O)c2ccnn2C)c(C)c1	89
